# Test system: Plasmodium falciparum NF54/iGP1_RE9H ulg8 stage V gametocytes
# assay_summary: gametocyte viability (luciferase signal relative to DMSO control) (% of DMSO control); higher = less gametocytocidal activity, active = 50 or less
# recorded_conditions: concentration: 1 µM; exposure time: 72 h
experimental_readout: gametocyte viability
Give only the figure.

Give the observed gametocyte viability of "N#CC(C#N)=Cc1cc(O)c(O)c(O)c1" for Plasmodium falciparum NF54/iGP1_RE9H ulg8 stage V gametocytes.
104

***
Give the observed gametocyte viability of CN[C@@H]1C[C@H]2O[C@@](C)([C@@H]1OC)n1c3ccccc3c3c4c(c5c6ccccc6n2c5c31)C(=O)NC4 [Staurosporine] for Plasmodium falciparum NF54/iGP1_RE9H ulg8 stage V gametocytes.
110

Give the observed gametocyte viability of COC[C@H]1OC(=O)c2coc3c2[C@@]1(C)C1=C(C3=O)[C@@H]2CCC(=O)[C@@]2(C)C[C@H]1OC(C)=O [Wortmannin] for Plasmodium falciparum NF54/iGP1_RE9H ulg8 stage V gametocytes.
91.8

Give the observed gametocyte viability of "N#CC(C#N)=Cc1cc(O)c(O)c([N+](=O)[O-])c1" for Plasmodium falciparum NF54/iGP1_RE9H ulg8 stage V gametocytes.
103

Give the observed gametocyte viability of "C/C(O)=C(\C#N)C(=O)Nc1cc(Br)ccc1Br" for Plasmodium falciparum NF54/iGP1_RE9H ulg8 stage V gametocytes.
110

Give the observed gametocyte viability of "N#CC(C#N)=Cc1ccc(O)c(O)c1" for Plasmodium falciparum NF54/iGP1_RE9H ulg8 stage V gametocytes.
99

Give the observed gametocyte viability of CC1=C(O)C(=O)[C@@H]2O[C@@H]2C1=O [Terreic acid] for Plasmodium falciparum NF54/iGP1_RE9H ulg8 stage V gametocytes.
98.4

Give the observed gametocyte viability of "O=c1[nH]c2ccc(Cl)cc2c(N[C@@H]2CN3CCC2CC3)c1-c1nc2ccccc2[nH]1" for Plasmodium falciparum NF54/iGP1_RE9H ulg8 stage V gametocytes.
112

Give the observed gametocyte viability of "Cc1ccccc1-n1c(Cn2cnc3c(N)ncnc32)nc2cccc(C)c2c1=O" for Plasmodium falciparum NF54/iGP1_RE9H ulg8 stage V gametocytes.
101

Give the observed gametocyte viability of "N#C/C(=C\c1ccc(O)c(O)c1)C(N)=S" for Plasmodium falciparum NF54/iGP1_RE9H ulg8 stage V gametocytes.
101

----------
# Test system: Plasmodium falciparum NF54/iGP1_RE9H ulg8 stage V gametocytes
# assay_summary: gametocyte viability (luciferase signal relative to DMSO control) (% of DMSO control); higher = less gametocytocidal activity, active = 50 or less
# recorded_conditions: concentration: 10 µM; exposure time: 72 h
Counter-ions that a name gives are not always drawn.
experimental_readout: gametocyte viability
Give only the figure.

Consider the worked cases shown below.
// fetch gametocyte viability given entry "CC1=CC(=O)c2c(O)cccc2C1=O"
16.7

// fetch gametocyte viability given entry Cc1sc2c(c1C)C(c1ccc(Cl)cc1)=NC(CC(=O)O)c1nnc(C)n1-2 (single isomer, unassigned; (+)) [(+)-JQ1 (free acid)]
88.2

// fetch gametocyte viability given entry COc1cc(C(=O)N2CC[C@@H](O)[C@@H](N)C2)cc2nc(-c3cc4ccccc4n3CC3CC3)n(C)c12 [GSK484 (hydrochloride)]
41.8

***
// fetch gametocyte viability given entry C[S+]([O-])CCCCN=C=S (centres undefined)
96.2

----------
Below, each entry is listed with its recorded gametocyte viability.
# System: Plasmodium falciparum NF54/iGP1_RE9H ulg8 stage V gametocytes
# assay_summary: gametocyte viability (luciferase signal relative to DMSO control) (% of DMSO control); higher = less gametocytocidal activity, active = 50 or less
# recorded_conditions: concentration: 10 µM; exposure time: 72 h
Give only the figure.

// fetch gametocyte viability given entry "O=c1[nH]c2ccc(Cl)cc2c(N[C@@H]2CN3CCC2CC3)c1-c1nc2ccccc2[nH]1"
120

// fetch gametocyte viability given entry CC(=O)c1c(O)c(C)c(O)c(Cc2c(O)c3c(c(C(=O)/C=C/c4ccccc4)c2O)OC(C)(C)C=C3)c1O [Rottlerin]
96.9

// fetch gametocyte viability given entry CC1=C(O)C(=O)[C@@H]2O[C@@H]2C1=O [Terreic acid]
64.8

// fetch gametocyte viability given entry "N#CC(C#N)=Cc1ccc(O)c(O)c1"
104

***
// fetch gametocyte viability given entry "C/C(O)=C(\C#N)C(=O)Nc1cc(Br)ccc1Br"
101

// fetch gametocyte viability given entry "Cn1cc(C2=C(c3cn(C4CCN(Cc5ccccn5)CC4)c4ccccc34)C(=O)NC2=O)c2ccccc21"
109

// fetch gametocyte viability given entry COC[C@H]1OC(=O)c2coc3c2[C@@]1(C)C1=C(C3=O)[C@@H]2CCC(=O)[C@@]2(C)C[C@H]1OC(C)=O [Wortmannin]
89.3

// fetch gametocyte viability given entry CCN1CCN(C(=O)Cc2ccc(Nc3ncc(F)c(Nc4ccc(C(=O)Nc5ccccc5Cl)cc4)n3)cc2)CC1 [Aurora A Inhibitor I]
82.7

// fetch gametocyte viability given entry "Cc1ccccc1-n1c(Cn2ncc3c(N)ncnc32)nc2cccc(C)c2c1=O"
104

// fetch gametocyte viability given entry "N#CC(C#N)=Cc1ccc([N+](=O)[O-])c(O)c1"
102

// fetch gametocyte viability given entry "Cc1ccccc1-n1c(Cn2cnc3c(N)ncnc32)nc2cccc(C)c2c1=O"
96.9
